test system: P388 leukemia ip, CD2F1 mice, survival T/C; assay: NCI In Vivo Anticancer Drug Screen. Data for tumor model P388 Leukemia (intraperitoneal) in CD2F1 (CDF1) mice; settings: endpoint: median survival time; dose: 6.25 mg/kg/injection; schedule: Q01DX005 (ip); vehicle: saline with Tween-80; higher = longer survival
Toxic doses and inconclusive results are not listed.
Consider the following molecules; for each one, report its T/C.

The examples below pair each entry with its known result.
* Cc1ccc(S(=O)(=O)Nc2ccc(-c3cc4cc(Cl)ccc4o3)cc2)cc1 | 92 % of control
* CCCCC1CN=C(OCC)N1 (stereo not given) | 104 % of control
* O/N=C\c1cc2ccccc2c[n+]1Cc1ccc2ccc3cccc4ccc1c2c34 | 108 % of control
* O=C(NCCCBr)c1csc(-c2csc(CCNC(=O)C(F)(F)F)n2)n1 | 89 % of control

Please turn your attention to the following entry.
What value of measured T/C is listed for `Cc1cc(C)c(C#N)c(NN)n1` ? 99 % of control

* * *

tested on: P388 leukemia ip, CD2F1 mice, survival T/C; assay: NCI In Vivo Anticancer Drug Screen. Data for tumor model P388 Leukemia (intraperitoneal) in CD2F1 (CDF1) mice; conditions: endpoint: median survival time; dose: 100.0 mg/kg/injection; schedule: Q01DX005 (ip); vehicle: saline; higher = longer survival
Inconclusive results and toxic doses are left out.
Consider the following compounds; for each one, report its T/C.

• OCCCOCCCO = 101 % of control

Hi there! I need T/C for each item below, if you can.
1. CSCCCNCc1ccc([N+](=O)[O-])cc1
2. CCC(C)(F)C(N)C(=O)O (configuration not stated)
3. CC1CCCC2C(c3ccccc3)OCN12 (configuration not stated)

1. 111 % of control
2. 97 % of control
3. 111 % of control

Hi there! I need T/C for each item below, if you can.
1. CC(=NCc1ccccc1)NO
2. CN(CCCCC(O)CN(C)C(=S)S)C(=S)S (configuration not stated)
3. CCOC(=O)c1c(-c2ccccc2)noc1N
4. COc1ccn(C2CCCO2)c(=O)n1 (configuration not stated)
5. CCN(CC)CCOCCCNc1ccnc2cc(Cl)ccc12

1. 96 % of control
2. 102 % of control
3. 98 % of control
4. 100 % of control
5. 103 % of control

Hi there! I need T/C for each item below, if you can.
1. O=C1c2cc(Oc3ccccc3)c(S(=O)(=O)O)c(S(=O)(=O)O)c2C(=O)c2c(O)ccc(O)c21
2. CN(C)CC1CCCC(CN(C)C)C1O (configuration not stated)

["94 % of control", "94 % of control"]

What value of measured T/C is listed for `CCOP(=O)(N=Nc1ccc(OC)nc1)OCC` ? 108 % of control

* * *

tested on: P388 leukemia ip, CD2F1 mice, survival T/C; experiment: NCI In Vivo Anticancer Drug Screen. Data for tumor model P388 Leukemia (intraperitoneal) in CD2F1 (CDF1) mice; settings: endpoint: median survival time; dose: 6.25 mg/kg/injection; schedule: Q01DX009 (ip); vehicle: saline with Tween-80
Inconclusive results and toxic doses are left out. How the source made its calls: active means survival T/C of 150% or more; inactive means T/C below 125% in these data.
Classes to choose from: Yes = active, No = inactive

- O=C(O)c1ccccc1N=Nc1ccc(N(CCCl)CCCl)cc1: Yes
- O=C1C(=O)c2ccccc2C(O)=C1CCCc1ccc(C2CCCCC2)cc1: No
- CN(C)C(=S)SCN1CCCCC1: No
- [Cu+2].[NH-]CC1CCCC[N-]1.[NH-]CC1CCCC[N-]1.[O-][Cl+3]([O-])([O-])O (stereo unspecified): No

What classification did `Cn1nc(-c2ccc(Cl)c(Cl)c2)[n+]([O-])c2c(=O)n(C)c(=O)nc1-2` end up with in this test? No

// query: `Cc1c(C=[N+]2CCCCC2)c2ccccc2n1C` No

* * *

Test system: P388 leukemia ip, CD2F1 mice, survival T/C
Assay: NCI In Vivo Anticancer Drug Screen. Data for tumor model P388 Leukemia (intraperitoneal) in CD2F1 (CDF1) mice
Conditions: endpoint: median survival time; dose: 100.0 mg/kg/injection; schedule: Q01DX001 (ip); vehicle: Klucel (hydroxypropylcellulose) (HPC); higher = longer survival
Protocol: The antitumor activity of compounds was measured in mice bearing transplantable tumors. Survival or tumor size were measured and the results are expressed as the measurement made in the treated group (T) divided by the measurement made in the vehicle treated control group (C). The tumor model used in this assay is P388 Leukemia (intraperitoneal) in CD2F1 (CDF1) mice
Toxic doses and inconclusive results are not listed.
parameter measured: T/C

The examples below pair each entry with its known result.
• Cc1ccc(S(=O)(=O)N/N=C/c2c(C)nc3n2CCS3)cc1 = 101 % of control
• NC(=O)CCC1CC(=O)c2ccccc2C1 (stereo not drawn) = 94 % of control

Hi there! I need T/C for each item below, if you can.
1. O=C(C(Oc1ccc(Cl)cc1)n1cncn1)N1CCOC1C1CCCCC1 (stereo not drawn)
2. Cc1cc2nc3[nH]c(=O)c4ccccc4c(=O)n3c2cc1C
3. Cn1c(=O)c2nc(-c3cccnc3)cnc2n(C)c1=O
4. NC(=O)c1c(N)nn2c(-c3ccccc3)cc(-c3ccccc3)cc12
5. CC(C)SC(=O)C=C(c1ccccc1)c1ccccc1
6. C/C=C/CC1(C)N=C1c1ccccc1 (stereo not drawn)
7. C/C(Cl)=C\c1nc2ccccc2nc1Cl

100 % of control
98 % of control
105 % of control
86 % of control
95 % of control
99 % of control
100 % of control

Hi there! I need T/C for each item below, if you can.
1. O=C(S)CC1(O)CCCCC12OC2c1ccccc1 (stereo not drawn)
2. Cc1ccc(S(=O)(=O)N/N=C/c2c(Br)nc3sccn23)cc1
3. CCOC(CCl)(NC(C)=O)C(=O)OC (stereo not drawn)

1. 99 % of control
2. 106 % of control
3. 104 % of control

# returns recorded T/C (system: P388 leukemia ip, CD2F1 mice, survival T/C) for COc1ccc2c(c1)[C@@]13CCCCC1[C@@H](C2)N(CC1CC1)CC3 (stereo partly drawn) 100 % of control

* * *

Consider the following compounds; for each one, report its T/C.
system: P388 leukemia ip, CD2F1 mice, survival T/C; assay: NCI In Vivo Anticancer Drug Screen. Data for tumor model P388 Leukemia (intraperitoneal) in CD2F1 (CDF1) mice; conditions: endpoint: median survival time; dose: 100.0 mg/kg/injection; schedule: Q01DX005 (ip); vehicle: Klucel (hydroxypropylcellulose) (HPC); higher = longer survival
Toxic doses and inconclusive results are not listed.

The examples below pair each entry with its known result.
- O=C(NCCCCCCNC(=O)C12CC3CC(CC(C3)C1)C2)C12CC3CC(CC(C3)C1)C2: 92 % of control
- CC[C@@]1(C(N)=O)CC2C=CC1C2 (stereo partly specified): 90 % of control
- C=CCNC(=S)Nc1ncn[nH]1: 104 % of control

Hi there! I need T/C for each item below, if you can.
1. CC(C)(C)c1cc(NC(=O)C(F)(F)F)c(Cl)c(C(C)(C)C)c1O
2. CCC1C2Cc3ccc(O)cc3C1(CC)CCN2C (stereo unspecified)
3. CCCN(CCC)c1ccc(C(=O)Oc2c(C)cccc2OC)cc1

1. 100 % of control
2. 106 % of control
3. 102 % of control

* * *

Tested on: P388 leukemia ip, CD2F1 mice, survival T/C
Assay: NCI In Vivo Anticancer Drug Screen. Data for tumor model P388 Leukemia (intraperitoneal) in CD2F1 (CDF1) mice
Conditions: endpoint: median survival time; dose: 50.0 mg/kg/injection; schedule: Q01DX009 (ip); vehicle: saline; higher = longer survival
Description: The antitumor activity of compounds was measured in mice bearing transplantable tumors. Survival or tumor size were measured and the results are expressed as the measurement made in the treated group (T) divided by the measurement made in the vehicle treated control group (C). The tumor model used in this assay is P388 Leukemia (intraperitoneal) in CD2F1 (CDF1) mice
Toxic doses and inconclusive results are not listed.
parameter measured: T/C

The examples below pair each entry with its known result.
- N=C1C=C(N)CS1: 87 % of control
- CCN(CC)CCOCCC1(C)Oc2ccc(Cl)cc2O1 (configuration not stated): 93 % of control
- NC(=O)c1[nH]cnc1N: 105 % of control

Hi there! I need T/C for each item below, if you can.
1. C=C[Se](=C(C(=O)c1ccccc1)C(=O)c1ccccc1)c1ccccc1 (configuration not stated)
2. Cc1cc(O)c2c(c1)C(=O)c1cccc(O)c1C2=O
3. CC(=O)Oc1cc2nc3ccccc3nc2cc1N(C)C
4. NCC(OCCCC(=O)O)C(Cl)(Cl)Cl (configuration not stated)

1. 107 % of control
2. 108 % of control
3. 99 % of control
4. 93 % of control

* * *

tested on: P388 leukemia ip, CD2F1 mice, survival T/C; test: NCI In Vivo Anticancer Drug Screen. Data for tumor model P388 Leukemia (intraperitoneal) in CD2F1 (CDF1) mice; settings: endpoint: median survival time; dose: 60.0 mg/kg/injection; schedule: Q01DX005 (ip); vehicle: Klucel (hydroxypropylcellulose) (HPC); higher = longer survival
Inconclusive results and toxic doses are left out.
parameter measured: T/C

- N#CC1=C(N)OC(C2CC2)=C(C#N)C1c1cccs1 (stereo unspecified): 104 % of control
- OC1COC(O)(CNCCc2c[nH]c3ccc(OCc4ccccc4)cc23)C(O)C1O (stereo unspecified): 101 % of control
- NS(=O)(=O)Oc1ccccc1C(=O)Oc1ccccc1Cl: 99 % of control

Hi there! I need T/C for each item below, if you can.
1. O=C1S/C(=C2\C(=O)N(CN3CCCCC3)c3ccc(Br)cc32)C(=O)N1CN1CCCCC1
2. COc1cccc(C2c3cc4c(cc3OC(O)C2C)OCO4)c1O (stereo unspecified)
3. C/[N+]([O-])=N\Nc1ccccc1SCCSc1ccccc1N/N=[N+](\C)[O-]

1. 100 % of control
2. 99 % of control
3. 91 % of control

Values from PubChem BioAssay AID330
